- test-system: GABA-A receptor; anion channel (Bos taurus) (UniProt P10063+P08220+P20237+P08219+P10064+P22300)
- test-protocol: Concentration required to potentiate GABA-evoked currents in voltage-clamped bovine chromaffin cells by 300%
- Assay type: functional

{"columns": ["given-smiles", "display-unit", "POT"],
 "data": [
  ["CC(=O)[C@H]1CC[C@H]2[C@@H]3CC[C@H]4C[C@H](O)[C@@H](N5CCO[C@H](C)C5)C[C@]4(C)[C@H]3CC[C@]12C", "nM", 250],
  ["CC(=O)[C@H]1CC[C@H]2[C@@H]3CC[C@H]4C[C@H](O)CC[C@]4(C)[C@H]3C(=O)C[C@]12C", "nM", 700],
  ["C[C@]12C[C@H](N3CCOCC3)[C@@H](O)C[C@@H]1CC[C@@H]1[C@@H]2CC[C@]2(C)[C@@H](C(=O)CO)CC[C@@H]12", "nM", 2300],
  ["CC(=O)[C@H]1CC[C@H]2[C@@H]3CC[C@H]4C[C@H](O)[C@@H](N5CCOC(C)(C)C5)C[C@]4(C)[C@H]3C(=O)C[C@]12C", "nM", 700],
  ["CC(=O)SCC(=O)[C@H]1CC[C@H]2[C@@H]3CC[C@H]4C[C@H](O)[C@@H](N5CCOC(C)(C)C5)C[C@]4(C)[C@H]3C(=O)C[C@]12C", "nM", 245],
  ["CC1(C)CN([C@H]2C[C@@]3(C)[C@@H](CC[C@H]4[C@@H]5CC[C@H](C(=O)CO)[C@@]5(C)CC(=O)[C@@H]43)C[C@@H]2O)CCO1", "nM", 4400]
]}

###

# selectivity ratio per entry
- test-protocol: Therapeutic index by the ratio between LD50 to HD50

{"columns": ["molecule", "selectivity ratio"],
 "data": [
  ["CC(=O)[C@H]1CC[C@H]2[C@@H]3CC[C@H]4C[C@H](O)[C@@H](N5CCO[C@H](C(C)C)C5)C[C@]4(C)[C@H]3C(=O)C[C@]12C", 9.9],
  ["CCCC(C)C1(CC)C(=O)NC(=S)NC1=O (stereo not given)", 3.7],
  ["CC(C)c1cccc(C(C)C)c1O", 3.5],
  ["CC(=O)[C@H]1CC[C@H]2[C@@H]3CC[C@H]4C[C@H](O)[C@@H](N5C[C@@H](C)O[C@@H](C)C5)C[C@]4(C)[C@H]3C(=O)C[C@]12C", 5.8],
  ["CC(=O)[C@H]1CC[C@H]2[C@@H]3CC[C@H]4C[C@H](O)[C@@H](N5CCOCC5)C[C@]4(C)[C@H]3C(=O)C[C@]12C", 4.6]
]}

###

- test-system: GABA-A receptor; anion channel
- test-protocol: The concentration required to inhibit 50% of binding of [35S]TBPS to Gamma-aminobutyric acid A receptor to rat whole brain membranes.
pIC50: −log10 of the molar value.
# pIC50 per entry
assay-endpoint: pIC50

{"columns": ["given-smiles", "assay-endpoint", "measurement"],
 "data": [
  ["C[C@]12C[C@H](N3CCOCC3)[C@@H](O)C[C@@H]1CC[C@@H]1[C@@H]2CC[C@]2(C)[C@@H](C(=O)CBr)CC[C@@H]12", "pIC50", 6.83],
  ["CC(=O)OCC(=O)[C@H]1CC[C@H]2[C@@H]3CC[C@H]4C[C@H](O)[C@@H](N5CCOC(C)(C)C5)C[C@]4(C)[C@H]3C(=O)C[C@]12C", "pIC50", 6.02],
  ["CC1(C)CN([C@H]2C[C@@]3(C)[C@@H](CC[C@@H]4[C@@H]3CC[C@]3(C)[C@@H](C(=O)CO)CC[C@@H]43)C[C@@H]2O)CCO1", "pIC50", 6.57],
  ["CC(=O)[C@H]1CC[C@H]2[C@@H]3CC[C@H]4C[C@H](O)[C@@H](N5CCO[C@H](CC(C)C)C5)C[C@]4(C)[C@H]3C(=O)C[C@]12C", "pIC50", 7.28],
  ["CC(=O)[C@H]1CC[C@H]2[C@@H]3CC[C@H]4C[C@H](O)[C@@H](N5CCOC(C)(C)C5)C[C@]4(C)[C@H]3CC[C@]12C", "pIC50", 6.97]
]}

###

- test-protocol: Therapeutic index by the ratio between LD50 to HD50

{"columns": ["given-smiles", "selectivity ratio"],
 "data": [
  ["CC[C@@H]1CN([C@H]2C[C@@]3(C)[C@@H](CC[C@H]4[C@@H]5CC[C@H](C(C)=O)[C@@]5(C)CC(=O)[C@@H]43)C[C@@H]2O)CCO1", 5.8],
  ["CC(=O)[C@H]1CC[C@H]2[C@@H]3CC[C@H]4C[C@H](O)[C@@H](N5CCSC(C)(C)C5)C[C@]4(C)[C@H]3C(=O)C[C@]12C", 16.3],
  ["C[C@]12C[C@H](N3CCOCC3)[C@@H](O)C[C@@H]1CC[C@@H]1[C@@H]2CC[C@]2(C)[C@@H](C(=O)CCl)CC[C@@H]12", 6.1]
]}

###

# HD50 per entry
- Tested on: Mus musculus
- test-protocol: Hypnotic dose was determined by observing loss of righting reflex for a minimum period of 30 sec in 50% of treated mice after i.v. administration.
- Format: functional

{"columns": ["given-smiles", "HD50 [µM/kg]"],
 "data": [
  ["CC[C@H]1CN([C@H]2C[C@@]3(C)[C@@H](CC[C@H]4[C@@H]5CC[C@H](C(C)=O)[C@@]5(C)CC(=O)[C@@H]43)C[C@@H]2O)CCO1", 15.1],
  ["CC(=O)[C@H]1CC[C@H]2[C@@H]3CC[C@H]4C[C@H](O)[C@@H](N5CCSCC5)C[C@]4(C)[C@H]3C(=O)C[C@]12C", 20],
  ["CC(=O)[C@H]1CC[C@H]2[C@@H]3CC[C@H]4C[C@H](O)CC[C@]4(C)[C@H]3C(=O)C[C@]12C", 6.3],
  ["CC1(C)CN([C@H]2C[C@@]3(C)[C@@H](CC[C@@H]4[C@@H]3CC[C@]3(C)[C@@H](C(=O)CCl)CC[C@@H]43)C[C@@H]2O)CCO1", 17.6],
  ["CCC1(CC)CN([C@H]2C[C@@]3(C)[C@@H](CC[C@H]4[C@@H]5CC[C@H](C(C)=O)[C@@]5(C)CC(=O)[C@@H]43)C[C@@H]2O)CCO1", 12],
  ["CC(C)c1cccc(C(C)C)c1O", 68],
  ["C[C@]12C[C@H](N3CCOCC3)[C@@H](O)C[C@@H]1CC[C@H]1[C@@H]3CC[C@H](C(=O)CO)[C@@]3(C)CC(=O)[C@@H]12", 198.2],
  ["CC1(C)CN([C@H]2C[C@@]3(C)[C@@H](CC[C@H]4[C@@H]5CC[C@H](C(=O)CCl)[C@@]5(C)CC(=O)[C@@H]43)C[C@@H]2O)CCO1", 13.4],
  ["C[C@]12C[C@H](N3CCOCC3)[C@@H](O)C[C@@H]1CC[C@@H]1[C@@H]2CC[C@]2(C)[C@@H](C(=O)CCl)CC[C@@H]12", 8.5],
  ["CC(=O)[C@H]1CC[C@H]2[C@@H]3CC[C@H]4C[C@H](O)[C@@H](N5CCOC(c6ccccc6)(c6ccccc6)C5)C[C@]4(C)[C@H]3C(=O)C[C@]12C", 49.9],
  ["CC(=O)[C@H]1CC[C@H]2[C@@H]3CC[C@H]4C[C@H](O)[C@@H](N5CCO[C@H](C)C5)C[C@]4(C)[C@H]3C(=O)C[C@]12C", 17],
  ["CC(=O)[C@H]1CC[C@H]2[C@@H]3CC[C@H]4C[C@H](O)[C@@H](N5CC(C)(C)SC(C)(C)C5)C[C@]4(C)[C@H]3C(=O)C[C@]12C", 61.8]
]}

###

- test-system: GABA-A receptor; anion channel
- test-protocol: The concentration required to inhibit 50% of binding of [35S]TBPS to Gamma-aminobutyric acid A receptor to rat whole brain membranes.
- Assay type: cell membranes

{"columns": ["given-smiles", "display-unit", "IC50"],
 "data": [
  ["CC(=O)[C@H]1CC[C@H]2[C@@H]3CC[C@H]4C[C@H](O)[C@@H](N5CCO[C@H](C(C)C)C5)C[C@]4(C)[C@H]3C(=O)C[C@]12C", "nM", 90],
  ["CC(=O)OCC(=O)[C@H]1CC[C@H]2[C@@H]3CC[C@H]4C[C@H](O)[C@@H](N5CCOCC5)C[C@]4(C)[C@H]3CC[C@]12C", "nM", 270],
  ["CC(=O)SCC(=O)[C@H]1CC[C@H]2[C@@H]3CC[C@H]4C[C@H](O)[C@@H](N5CCOC(C)(C)C5)C[C@]4(C)[C@H]3C(=O)C[C@]12C", "nM", 261],
  ["CCC[C@H]1CN([C@H]2C[C@@]3(C)[C@@H](CC[C@H]4[C@@H]5CC[C@H](C(C)=O)[C@@]5(C)CC(=O)[C@@H]43)C[C@@H]2O)CCO1", "nM", 948],
  ["CC(=O)[C@H]1CC[C@H]2[C@@H]3CC[C@H]4C[C@H](O)[C@@H](N5CCO[C@@H](Cc6ccccc6)C5)C[C@]4(C)[C@H]3C(=O)C[C@]12C", "nM", 100],
  ["CCC[C@@H]1CN([C@H]2C[C@@]3(C)[C@@H](CC[C@H]4[C@@H]5CC[C@H](C(C)=O)[C@@]5(C)CC(=O)[C@@H]43)C[C@@H]2O)CCO1", "nM", 142],
  ["C[C@]12CC[C@@H](O)C[C@@H]1CC[C@@H]1[C@@H]2CC[C@]2(C)[C@@H](C(=O)CO)CC[C@@H]12", "nM", 220],
  ["CC[C@@H]1CN([C@H]2C[C@@]3(C)[C@@H](CC[C@H]4[C@@H]5CC[C@H](C(C)=O)[C@@]5(C)CC(=O)[C@@H]43)C[C@@H]2O)CCO1", "nM", 317],
  ["CC(=O)[C@H]1CC[C@H]2[C@@H]3CC[C@H]4C[C@H](O)[C@@H](N5CCO[C@H](C)C5)C[C@]4(C)[C@H]3CC[C@]12C", "nM", 369],
  ["CC(=O)[C@H]1CC[C@H]2[C@@H]3CC[C@@H]4C[C@H](O)CC[C@]4(C)[C@H]3CC[C@]12C", "nM", 117],
  ["CC(=O)SCC(=O)[C@H]1CC[C@H]2[C@@H]3CC[C@H]4C[C@H](O)[C@@H](N5CCOC(C)(C)C5)C[C@]4(C)[C@H]3CC[C@]12C", "nM", 32]
]}
